# assayed-target: T1, 4H2438-AA
# T1 chain: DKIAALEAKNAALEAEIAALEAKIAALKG
# protocol-notes: two-hybrid library CCmax;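 further: natural log of median RNA to DNA barcode read ratio; higher means stronger binding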
# test-parameters: mean of both orientations
attribute-measured: interaction score

Answered cases to consult:
{"columns": ["binder", "meas-value"],
 "data": [
  ["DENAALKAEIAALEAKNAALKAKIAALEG [4H1597-AA]", -0.641],
  ["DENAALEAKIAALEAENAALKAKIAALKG [4H1310-AA]", -0.264]
]}

[I] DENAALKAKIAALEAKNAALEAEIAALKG [4H1842-AA]
[II] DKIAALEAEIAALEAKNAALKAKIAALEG [4H2109-AA]
Exam item: // max by interaction score over [ I , II ] Returns: label corresponding to the selected item.
Marked response: II
(II: -0.365, I: -1.14)

Cited source: paper PMC10397247
